In this section, each of the compounds is paired with its reported % Viability.
tested on: vaccinia virus; conditions: 100 μM
property: % Viability (%)

[[record]]
compound = "CC(CCCN)C1CCC2C3C(OCCCN)CC4CC(OCCCN)CCC4(C)C3CC(OCCCN)C12C (stereo not shown)"
property = "% Viability"
observed = 65.80

[[record]]
compound = "CCCCCCCCNCCC[C@@H](C)[C@H]1CC[C@H]2[C@@H]3CC[C@@H]4C[C@H](OCCCN)CC[C@]4(C)[C@H]3C[C@H](OCCCN)[C@]12C"
property = "% Viability"
observed = 0.00

[[record]]
compound = "CC(CCCNCCCNCCCN)C1CCC2C3C(OCCCN)CC4CC(OCCCN)CCC4(C)C3CC(OCCCN)C12C (stereo not shown)"
property = "% Viability"
observed = 95.53

[[record]]
compound = "CCCCCCCCNCCC[C@@H](C)[C@H]1CC[C@H]2[C@@H]3[C@H](OCCCN)C[C@@H]4C[C@H](OCCCN)CC[C@]4(C)[C@H]3C[C@H](OCCCN)[C@]12C"
property = "% Viability"
observed = 0.00

[[record]]
compound = "CC(CCCOCCCN)C1CCC2C3C(OCCCN)CC4CC(OCCCN)CCC4(C)C3CC(OCCCN)C12C (stereo not shown)"
property = "% Viability"
observed = 10.04

[[record]]
compound = "CC(CCCOS(=O)(=O)O)C1CCC2C3C(OCCCN)CC4CC(OCCCN)CCC4(C)C3CC(OCCCN)C12C (stereo not shown)"
property = "% Viability"
observed = 4.31

[[record]]
compound = "CCCCCCCCCCCCCCCCNCCCC(C)C1CCC2C3C(OCCCN)CC4CC(OCCCN)CCC4(C)C3CC(OCCCN)C12C.Cl.Cl.Cl.Cl (stereo not shown)"
property = "% Viability"
observed = 0.00


---

tested on: vaccinia virus; conditions: 10 μM
In this section, each of the compounds is paired with its reported % Viability.
property: % Viability (%)

[[record]]
compound = "CCCCCCCCOCCCC(C)C1CCC2C3C(OCCCN)CC4CC(OCCCN)CCC4(C)C3CC(OCCCN)C12C (stereo not drawn) [CSA-7]"
property = "% Viability"
result_units = "%"
observed = 0.00

[[record]]
compound = "CCCCCCCCNCCC[C@@H](C)[C@H]1CC[C@H]2[C@@H]3CC[C@@H]4C[C@H](OCCCN)CC[C@]4(C)[C@H]3C[C@H](OCCCN)[C@]12C [CSA-46]"
property = "% Viability"
result_units = "%"
observed = 3.77

[[record]]
compound = "CCCCCCCCCCCCCCCCNCCCC(C)C1CCC2C3C(OCCCN)CC4CC(OCCCN)CCC4(C)C3CC(OCCCN)C12C.Cl.Cl.Cl.Cl (stereo not drawn) [CSA-92]"
property = "% Viability"
result_units = "%"
observed = 0.00


---

tested on: vaccinia virus; settings: 25 μM
# cutoff 30% applies to % Viability; >= gives rule met, < gives rule not met

[[record]]
molecule = "CC(CCCO)C1CCC2C3C(NC(=O)CCCCCN)CC4CC(NC(=O)CCCCCN)CCC4(C)C3CC(NC(=O)CCCCCN)C12C (centres unmarked)"
target_of_assay = "vaccinia virus"
class_name = "rule met"

[[record]]
molecule = "CCCCCN(CCCCC)CCCC(C)C1CCC2C3C(OCCCN)CC4CC(OCCCN)CCC4(C)C3CC(OCCCN)C12C.Cl.Cl.Cl.Cl (centres unmarked)"
target_of_assay = "vaccinia virus"
class_name = "rule not met"

[[record]]
molecule = "CC(CCCN)C1CCC2C3C(OCCCN)CC4CC(OCCCN)CCC4(C)C3CC(OCCCN)C12C (centres unmarked)"
target_of_assay = "vaccinia virus"
class_name = "rule met"

[[record]]
molecule = "CCCCCCCCN(CCCCCCCC)CCCC(C)C1CCC2C3C(OCCCN)CC4CC(OCCCN)CCC4(C)C3CC(OCCCN)C12C.Cl.Cl.Cl.Cl (centres unmarked)"
target_of_assay = "vaccinia virus"
class_name = "rule not met"

[[record]]
molecule = "CC(CCCOCCCN)C1CCC2C3C(OCCCN)CC4CC(OCCCN)CCC4(C)C3CC(OCCCN)C12C (centres unmarked)"
target_of_assay = "vaccinia virus"
class_name = "rule met"

[[record]]
molecule = "CCCCCCCCNCCC[C@@H](C)[C@H]1CC[C@H]2[C@@H]3[C@H](OCCCN)C[C@@H]4C[C@H](OCCCN)CC[C@]4(C)[C@H]3C[C@H](OCCCN)[C@]12C"
target_of_assay = "vaccinia virus"
class_name = "rule not met"

[[record]]
molecule = "CCCCCCCCNCCC[C@@H](C)[C@H]1CC[C@H]2[C@@H]3CC[C@@H]4C[C@H](OCCCN)CC[C@]4(C)[C@H]3C[C@H](OCCCN)[C@]12C"
target_of_assay = "vaccinia virus"
class_name = "rule not met"

[[record]]
molecule = "CCCCCCCCOCCCC(C)C1CCC2C3C(OCCCN)CC4CC(OCCCN)CCC4(C)C3CC(OCCCN)C12C (centres unmarked)"
target_of_assay = "vaccinia virus"
class_name = "rule not met"

[[record]]
molecule = "CC(CCCNC(=O)CCC(=O)c1ccc2cc(N(C)C)ccc2c1)C1CCC2C3C(OCCCN)CC4CC(OCCCN)CCC4(C)C3CC(OCCCN)C12C (centres unmarked)"
target_of_assay = "vaccinia virus"
class_name = "rule not met"

[[record]]
molecule = "CCCOCCCC(C)C1CCC2C3C(OCCCN)CC4CC(OCCCN)CCC4(C)C3CC(OCCCN)C12C (centres unmarked)"
target_of_assay = "vaccinia virus"
class_name = "rule not met"

[[record]]
molecule = "CC(CCCOS(=O)(=O)O)C1CCC2C3C(OCCCN)CC4CC(OCCCN)CCC4(C)C3CC(OCCCN)C12C (centres unmarked)"
target_of_assay = "vaccinia virus"
class_name = "rule met"

[[record]]
molecule = "CC(CCCO)C1CCC2C3C(OCCCN)CC4CC(OCCCN)CCC4(C)C3CC(OCCCN)C12C (centres unmarked)"
target_of_assay = "vaccinia virus"
class_name = "rule not met"

[[record]]
molecule = "CCCCCCCCCCCCCCCCNCCCC(C)C1CCC2C3C(OCCCN)CC4CC(OCCCN)CCC4(C)C3CC(OCCCN)C12C.Cl.Cl.Cl.Cl (centres unmarked)"
target_of_assay = "vaccinia virus"
class_name = "rule not met"

[[record]]
molecule = "CC(CCCNCCCNCCCN)C1CCC2C3C(OCCCN)CC4CC(OCCCN)CCC4(C)C3CC(OCCCN)C12C (centres unmarked)"
target_of_assay = "vaccinia virus"
class_name = "rule met"


Taken from patent US7754705B2.
